Every entry's value here was drawn from patent US20210355106A1.

Give measured Ki for each item. Keep answers brief.
- target of assay: USP7 (Homo sapiens, UniProt Q93009, C315A)
- Construct: 0.25 nM His-His-USP7 (aa208-560, |C315A|) was incubated with compound; His-His (N)
- Sequence (Q93009 208-560 C315A): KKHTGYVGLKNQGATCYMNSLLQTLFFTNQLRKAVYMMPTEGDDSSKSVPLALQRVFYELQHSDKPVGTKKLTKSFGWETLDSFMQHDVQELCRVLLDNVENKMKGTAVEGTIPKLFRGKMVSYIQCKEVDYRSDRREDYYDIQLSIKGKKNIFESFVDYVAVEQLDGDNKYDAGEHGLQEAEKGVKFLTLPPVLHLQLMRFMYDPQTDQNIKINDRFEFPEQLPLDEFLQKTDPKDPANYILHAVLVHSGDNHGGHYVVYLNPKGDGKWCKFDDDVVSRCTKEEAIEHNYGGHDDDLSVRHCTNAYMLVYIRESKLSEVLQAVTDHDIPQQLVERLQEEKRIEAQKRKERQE
- assay summary: Inhibition of USP7 by Fluorescence Intensity (FLINT) readings, Ubiquitin-Rhodamine-110 substrate
- Type: biochemical
- experimental parameters: 0.25 nM His-His-USP7 (aa208-560), 60 minutes at 30° C. preincubation; Ki determined from IC50 according to Cer et al.
- Description: USP7 activity was measured using Rhodamine-110 c-terminal labelled Ubiquitin as a substrate (UbiQ Bio), Incubation with USP7 results in the release of Rhodamine-110 leading to an increase in fluorescence which can be used in the continuous measurement of USP7 activity. […] The inhibition of increasing doses of compound was expressed as a percentage reduction in kinetic rate compared to the kinetic rates established between ‘DMSO only’ and ‘total inhibition’ controls (no USP7). […]
Numbers only; they are read as nM.

Record `COc1cc(Cl)cc(Oc2ncn(C[C@@]3(O)CCN(C(=O)[C@@H]4CCN(Cc5ccnc(C)n5)C[C@H]4c4ccccc4)CC3(F)F)c(=O)c2N)c1` , field Ki: 81.2

Record `CC(C)(C)OC(=O)N1CC[C@@H](C(=O)N2CCC(O)(Cn3cnc(Oc4ccc(F)cc4)c(N)c3=O)CC2)[C@H](c2ccccc2)C1` , field Ki: 131

Record `Cc1nccc(CN2CC[C@@H](C(=O)N3CC[C@](O)(Cn4cnc(Oc5ccc(Cl)cc5)c(N)c4=O)C(F)(F)C3)[C@H](c3ccccc3)C2)n1` , field Ki: 38.5

###

- target of assay: USP7 (Homo sapiens, UniProt Q93009, C315A)
- Construct: 0.25 nM His-His-USP7 (aa208-560, |C315A|) was incubated with compound; His-His (N)
- assay summary: Inhibition of USP7 by Fluorescence Intensity (FLINT) readings, Ubiquitin-Rhodamine-110 substrate
- Assay type: biochemical
- experimental parameters: 0.25 nM His-His-USP7 (aa208-560), 60 minutes at 30° C. preincubation; Ki determined from IC50 according to Cer et al.
- Protocol: USP7 activity was measured using Rhodamine-110 c-terminal labelled Ubiquitin as a substrate (UbiQ Bio), Incubation with USP7 results in the release of Rhodamine-110 leading to an increase in fluorescence which can be used in the continuous measurement of USP7 activity. […] The inhibition of increasing doses of compound was expressed as a percentage reduction in kinetic rate compared to the kinetic rates established between ‘DMSO only’ and ‘total inhibition’ controls (no USP7). […]
Sorting guide: entries reporting Ki beneath 20 nM go in the t pile, the rest go in the f pile.

Incoming: Please check: Ki for Cc1ccc(-c2nc(C)c(C(=O)N3CC[C@@H](C(=O)N4CCC(O)(Cn5cnc(Oc6ccc(CN)cc6)c(N)c5=O)CC4)[C@H](c4ccccc4)C3)s2)cn1 [Example 131] , strictly under 20 nM or not?
Outgoing: t

Incoming: Please check: Ki for Nc1c(Oc2ccc(F)cc2)ncn(C[C@@]2(O)CCN(C(=O)[C@@H]3CCN(Cc4ccnc(-c5ccccc5)n4)C[C@H]3c3ccccc3)CC2(F)F)c1=O [Example 177] , strictly under 20 nM or not?
Outgoing: t

Incoming: Please check: Ki for Cc1nc(Br)sc1C(=O)N1CC[C@@H](C(=O)N2CC[C@](O)(Cn3cnc(Oc4ccc(F)cc4)c(N)c3=O)C(F)(F)C2)[C@H](c2ccccc2)C1 [Example 41] , strictly under 20 nM or not?
Outgoing: t

Incoming: Please check: Ki for Cc1ccc(C2(N3CC[C@@H](C(=O)N4CCC(O)(Cn5cnc(Oc6ccc(F)cc6)c(N)c5=O)CC4)[C@H](c4ccccc4)C3)COC2)cc1 [Example 155] , strictly under 20 nM or not?
Outgoing: f

Incoming: Please check: Ki for Cc1nc(-c2ccc(F)cc2)sc1C(=O)N1CC[C@@H](C(=O)N2CC[C@](O)(Cn3cnc(Oc4ccc(F)cc4)c(N)c3=O)C(F)(F)C2)[C@H](c2ccccc2)C1 [Example 44] , strictly under 20 nM or not?
Outgoing: t

###

- target of assay: USP7 (Homo sapiens, UniProt Q93009, C315A)
- Construct: 0.25 nM His-His-USP7 (aa208-560, |C315A|) was incubated with compound; His-His (N)
- assay summary: Inhibition of USP7 by Fluorescence Intensity (FLINT) readings, Ubiquitin-Rhodamine-110 substrate
- Type: biochemical
- experimental parameters: 0.25 nM His-His-USP7 (aa208-560), 60 minutes at 30° C. preincubation; Ki determined from IC50 according to Cer et al.
Classes (Ki): lower range (below 10 nM), middle range (10 nM to below 50 nM), upper range (50 nM or more)

Incoming: Dear colleague, I would appreciate it if you could identify the bin for `Cc1ccc(-c2nc(C)c(C(=O)N3CC[C@@H](C(=O)N4CC[C@](O)(Cn5cnc(Oc6ccccc6)c(N)c5=O)C(F)(F)C4)[C@H](c4ccccc4)C3)s2)cn1` and reply at your convenience.
Outgoing: lower range

Incoming: Dear colleague, I would appreciate it if you could identify the bin for `Nc1c(Oc2ccc(F)cc2)ncn(CC2(O)CCN(C(=O)[C@@H]3CCN(C(=O)Nc4cccc(Br)c4)C[C@H]3c3ccccc3)CC2)c1=O` and reply at your convenience.
Outgoing: middle range

Incoming: Dear colleague, I would appreciate it if you could identify the bin for `Cc1ccc(-c2nc(C)c(C(=O)N3CC[C@@H](C(=O)N4CCC(O)(Cn5cnc(Oc6ccccc6)c(N)c5=O)CC4)[C@H](c4ccccc4)C3)s2)cn1` and reply at your convenience.
Outgoing: lower range

Incoming: Dear colleague, I would appreciate it if you could identify the bin for `COc1cc(Oc2ncn(C[C@@]3(O)CCN(C(=O)[C@@H]4CCN(Cc5ncccn5)C[C@H]4c4ccccc4)CC3(F)F)c(=O)c2N)ccc1F` and reply at your convenience.
Outgoing: upper range

Incoming: Dear colleague, I would appreciate it if you could identify the bin for `Nc1c(Oc2ccc(F)cc2)ncn(CC2(O)CCN(C(=O)[C@@H]3CCN(C(=O)Nc4ccccc4C(F)(F)F)C[C@H]3c3ccccc3)CC2)c1=O` and reply at your convenience.
Outgoing: middle range

Incoming: Dear colleague, I would appreciate it if you could identify the bin for Nc1c(Oc2ccc(F)cc2)ncn(C[C@@]2(O)CCN(C(=O)[C@@H]3CCN(C(=O)C4CC(c5ccccc5)C4)C[C@H]3c3ccccc3)CC2(F)F)c1=O (single isomer, unassigned) [Example 72] and reply at your convenience.
Outgoing: upper range

Incoming: Dear colleague, I would appreciate it if you could identify the bin for `Nc1c(Oc2ccc(F)cc2)ncn(CC2(O)CCN(C(=O)[C@@H]3CCN(Cc4ccccc4F)C[C@H]3c3ccccc3)CC2)c1=O` and reply at your convenience.
Outgoing: middle range

Incoming: Dear colleague, I would appreciate it if you could identify the bin for `CC(C)C1(N2CC[C@@H](C(=O)N3CCC(O)(Cn4cnc(Oc5ccc(F)cc5)c(N)c4=O)CC3)[C@H](c3ccccc3)C2)COC1` and reply at your convenience.
Outgoing: upper range

Incoming: Dear colleague, I would appreciate it if you could identify the bin for `Nc1c(Oc2ccc(F)cc2)ncn(CC2(O)CCN(C(=O)[C@@H]3CCN(C(=O)c4cncc(-c5ccccc5)c4)C[C@H]3c3ccccc3)CC2)c1=O` and reply at your convenience.
Outgoing: middle range

Incoming: Dear colleague, I would appreciate it if you could identify the bin for `Nc1c(Oc2ccc(F)cc2)ncn(CC2(O)CCN(C(=O)[C@@H]3CCN(C(=O)c4ccc5c(c4)C(=O)C(=O)N5)C[C@H]3c3ccccc3)CC2)c1=O` and reply at your convenience.
Outgoing: lower range

Incoming: Dear colleague, I would appreciate it if you could identify the bin for `Nc1c(Oc2ccc(F)cc2)ncn(CC2(O)CCN(C(=O)[C@@H]3CCN(S(=O)(=O)c4cccc(Br)c4)C[C@H]3c3ccccc3)CC2)c1=O` and reply at your convenience.
Outgoing: middle range

Incoming: Dear colleague, I would appreciate it if you could identify the bin for `CC(C)(C)OC(=O)N1CC[C@@H](C(=O)N2CC[C@](O)(Cn3cnc(Oc4ccc(F)cc4)c(N)c3=O)C(F)(F)C2)[C@H](c2ccccc2)C1` and reply at your convenience.
Outgoing: upper range

Incoming: Dear colleague, I would appreciate it if you could identify the bin for `CC(C)(C)OC(=O)N1CC[C@@H](C(=O)N2CC[C@](O)(Cn3cnc(Oc4ccccc4)c(N)c3=O)C(F)(F)C2)[C@H](c2ccccc2)C1` and reply at your convenience.
Outgoing: upper range

Incoming: Dear colleague, I would appreciate it if you could identify the bin for `Nc1c(Oc2ccc(F)cc2)ncn(CC2(O)CCN(C(=O)[C@@H]3CCN(C(=O)c4ccccc4)C[C@H]3c3ccccc3)CC2)c1=O` and reply at your convenience.
Outgoing: middle range

Incoming: Dear colleague, I would appreciate it if you could identify the bin for `Cc1ncc(-c2nc(C)c(C(=O)N3CC[C@@H](C(=O)N4CC[C@](O)(Cn5cnc(Oc6ccc(F)cc6)c(N)c5=O)C(F)(F)C4)[C@H](c4ccccc4)C3)s2)cc1C(F)(F)F` and reply at your convenience.
Outgoing: middle range

Incoming: Dear colleague, I would appreciate it if you could identify the bin for `Cc1ccc(-c2cc(F)c(C(=O)N3CC[C@@H](C(=O)N4CC[C@](O)(Cn5cnc(Oc6ccc(F)cc6)c(N)c5=O)C(F)(F)C4)[C@H](c4ccccc4)C3)s2)cn1` and reply at your convenience.
Outgoing: lower range

Incoming: Dear colleague, I would appreciate it if you could identify the bin for `COc1ccc(NC(=O)N2CC[C@@H](C(=O)N3CCC(O)(Cn4cnc(Oc5ccc(F)cc5)c(N)c4=O)CC3)[C@H](c3ccccc3)C2)c(OC)c1` and reply at your convenience.
Outgoing: middle range

Incoming: Dear colleague, I would appreciate it if you could identify the bin for `Nc1c(Oc2ccc(F)cc2)ncn(CC2(O)CCN(C(=O)[C@@H]3CCN(C4(c5ccc(F)cc5)COC4)C[C@H]3c3ccccc3)CC2)c1=O` and reply at your convenience.
Outgoing: upper range

Incoming: Dear colleague, I would appreciate it if you could identify the bin for `Cc1ccc(-c2cc(F)c(C(=O)N3CC[C@@H](C(=O)N4CCC(O)(Cn5cnc(Oc6cccc(C(F)(F)F)c6)c(N)c5=O)CC4)[C@H](c4ccccc4)C3)s2)cn1` and reply at your convenience.
Outgoing: middle range

Incoming: Dear colleague, I would appreciate it if you could identify the bin for `CN(C(=O)N1CC[C@@H](C(=O)N2CCC(O)(Cn3cnc(Oc4ccc(F)cc4)c(N)c3=O)CC2)[C@H](c2ccccc2)C1)c1ccccc1` and reply at your convenience.
Outgoing: upper range

Incoming: Dear colleague, I would appreciate it if you could identify the bin for `Nc1c(Oc2ccc(F)cc2)ncn(CC2(O)CCN(C(=O)[C@@H]3CCN(C4(c5cccc(Br)c5)COC4)C[C@H]3c3ccccc3)CC2)c1=O` and reply at your convenience.
Outgoing: upper range

Incoming: Dear colleague, I would appreciate it if you could identify the bin for `Nc1c(Oc2ccc(F)cc2)ncn(CC2(O)CCN(C(=O)[C@@H]3CCN(C4(c5ccccc5Cl)COC4)C[C@H]3c3ccccc3)CC2)c1=O` and reply at your convenience.
Outgoing: middle range
